# Test system: IL-17A-induced G-CSF production in human normal keratinocyte (NHK)
# test.details: NHK assay: IL-17A-induced G-CSF production in normal human keratinocytes
# Format: cell-based
# measurement.context: Homo sapiens, Keratinocyte, 24 h, IL-17A 5 ng/mL, average if tested more than once
Each item that follows carries a reported IC50.

// worked examples, IC50 included
{"molecule": "C[C@@H](NC(=O)CCC(F)(F)F)c1ccc2[nH]c([C@@H](NC(=O)c3nnc(CCC(F)(F)F)o3)C3CCC(F)(F)CC3)nc2c1 [Example 187]", "IC50": "> 0.1 µM"}
{"molecule": "C[C@@H](NC(=O)CCC(F)(F)F)c1ccc2[nH]c([C@@H](NC(=O)c3nn(CC4CCC4)cc3C#N)C3CCC(F)(F)CC3)nc2c1 [Example 91]", "IC50": "> 0.1 µM"}

Read the next record carefully.
Lookup: I am curious: what IC50 value has been reported for C[C@@H](NC(=O)CCC(F)(F)F)c1ccc2[nH]c([C@@H](NC(=O)c3cnn(CCC4CC4)n3)C3CCC(F)(F)CC3)nc2c1 [Example 12] ?
Found: > 0.1 µM

###

Documented IC50 across a set of molecules
# Tested on: IL-17A-induced G-CSF production in human normal keratinocyte (NHK)
# test.details: NHK assay: IL-17A-induced G-CSF production in normal human keratinocytes
# Format: cell-based
# measurement.context: Homo sapiens, Keratinocyte, 24 h, IL-17A 5 ng/mL, average if tested more than once

Below are worked cases with known answers.
{"molecule": "Cc1nonc1C(=O)N[C@H](c1nc2ccc([C@H](NC(=O)CC3CC(F)(F)C3)C3CC3)cc2[nH]1)C1CCC(F)(F)CO1 (single isomer, unassigned)", "IC50": "> 0.1 µM"}
{"molecule": "Cc1nonc1C(=O)N[C@@H](CC(C)(C)C(F)(F)F)c1nc2ccc([C@H](NC(=O)CC3CC(F)(F)C3)C3CC3)cc2[nH]1", "IC50": "0.05 to 0.1 µM"}

Moving on to the next molecule.
Lookup: Tell me reported IC50 for Cc1nonc1C(=O)N[C@H](c1nc2cc([C@@H](COC3CC3)NC(=O)CC3CC(F)(F)C3)ccc2[nH]1)[C@@H](C)O[C@@H](C)C(F)(F)F , tested with IL-17A-induced G-CSF production in human normal keratinocyte (NHK).
Found: < 0.05 µM

###

# assay.system: IL-17A : IL-17RA binding (Homo sapiens, UniProt Q16552, K93Q)
# Construct: Name: IL-17A-Flag
# Sequence (Q16552 with tags, fused parts or gaps K93Q): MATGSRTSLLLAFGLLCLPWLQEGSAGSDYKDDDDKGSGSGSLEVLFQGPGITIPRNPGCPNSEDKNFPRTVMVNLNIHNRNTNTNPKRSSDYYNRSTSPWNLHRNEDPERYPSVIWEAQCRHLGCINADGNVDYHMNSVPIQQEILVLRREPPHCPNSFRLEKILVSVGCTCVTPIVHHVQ
# test.details: IL-17A(FLAG-tagged):IL-17RA(His-tagged) binding disruption Eu-HTRF assay, Protocol 1
# measurement.context: FLAG-IL-17A 2.5 nM at 2x final concentration; average if tested more than once
pIC50: −log10 of the molar value.
measurement.label: pIC50

{"molecule": "CC(C)(OC[C@H](NC(=O)c1nonc1C1CC1)c1nc2ccc([C@H](NC(=O)CC3CC(F)(F)C3)C3CC3)cc2[nH]1)C(F)(F)F", "pIC50": "> 7.30"}
{"molecule": "CC(C)c1c(C(=O)NC(CC(C)(C)C(F)(F)F)c2nc3cc([C@@H](C)NC(=O)CCC(F)(F)F)ccc3[nH]2)no[n+]1[O-] (single isomer, unassigned)", "pIC50": "7.00 to 7.30"}
{"molecule": "C[C@@H](NC(=O)CCC(F)(F)F)c1ccc2[nH]c([C@@H](NC(=O)[C@H]3C[C@@H]3C(F)(F)F)C3CCC(F)(F)CC3)nc2c1 (relative stereo)", "pIC50": "< 7.00"}
{"molecule": "C[C@@H](NC(=O)CCC(F)(F)F)c1ccc2[nH]c([C@@H](NC(=O)c3cnnn3CC3CCC3(F)F)C3CCC(F)(F)CC3)nc2c1 (stereo partly drawn)", "pIC50": "< 7.00"}
{"molecule": "CCn1ncc(C(=O)N[C@H](c2nc3cc([C@@H](C)NC(=O)CCC(F)(F)F)ccc3[nH]2)C2CCC(F)(F)CC2)n1", "pIC50": "< 7.00"}

Lookup: For the molecule shown here, C[C@@H](NC(=O)CCC(F)(F)F)c1ccc2[nH]c([C@@H](NC(=O)c3ccn4c3CCC4)C3CCC(F)(F)CC3)nc2c1 , give the reported pIC50.
Found: < 7.00

###

# assay.system: IL-17A : IL-17RA binding (Homo sapiens, UniProt Q16552, K93Q)
# Construct: Name: IL-17A-Flag
# test.details: IL-17A(FLAG-tagged):IL-17RA(His-tagged) binding disruption Eu-HTRF assay, Protocol 1
# measurement.context: FLAG-IL-17A 2.5 nM at 2x final concentration; average if tested more than once
measurement.label: IC50

Below are worked cases with known answers.
{"compound": "CCn1nc(C(=O)N[C@H](c2nc3cc([C@@H](C)NC(=O)CCC(F)(F)F)ccc3[nH]2)C2CCC(F)(F)CC2)cc1C(F)(F)F [Example 92]", "IC50": "> 100 nM"}
{"compound": "CC(CC(=O)N[C@H](C)c1ccc2nc([C@@H](NC(=O)c3ccnn3CCC(F)(F)F)C3CCC(F)(F)CC3)[nH]c2c1)C(F)(F)F (single isomer, unassigned) [Example 138]", "IC50": "> 100 nM"}
{"compound": "CC(Cn1ncc(C(=O)N[C@H](c2nc3ccc([C@@H](C)NC(=O)CCC(F)(F)F)cc3[nH]2)C2CCC(F)(F)CC2)n1)C(F)(F)F (single isomer, unassigned) [Example 69]", "IC50": "> 100 nM"}
{"compound": "C[C@@H](NC(=O)CCC(F)(F)F)c1ccc2[nH]c([C@@H](NC(=O)c3cnn(CCOC(F)(F)F)c3)C3CCC(F)(F)CC3)nc2c1 [Example 26]", "IC50": "> 100 nM"}
{"compound": "CC(C)C(NC(=O)CCC(F)(F)F)c1ccc2[nH]c([C@@H](NC(=O)c3ccnn3C)C3CCC(F)(F)CC3)nc2c1 (single isomer, unassigned) [Example 45]", "IC50": "> 100 nM"}
{"compound": "C[C@@H](NC(=O)CCC(F)(F)F)c1ccc2[nH]c([C@@H](NC(=O)[C@H]3C[C@@H]3C#N)C3CCC(F)(F)CC3)nc2c1 (relative stereo) [Example 103]", "IC50": "> 100 nM"}
{"compound": "Cc1nonc1C(=O)N[C@@H](C[C@H]1CCC(F)(F)C1)c1nc2ccc([C@H](NC(=O)CC3CC(F)(F)C3)C3CC3)cc2[nH]1 [Example 235]", "IC50": "> 100 nM"}
{"compound": "C[C@@H](NC(=O)CCC(F)(F)F)c1ccc2[nH]c(C(CC(C)(C)C(F)(F)F)NC(=O)c3cnn(CCC(F)(F)F)n3)nc2c1 (single isomer, unassigned) [Example 219]", "IC50": "> 100 nM"}
{"compound": "CC(C)(OC[C@H](NC(=O)c1nonc1C1CC1)c1nc2cc([C@H](NC(=O)CC34CC(F)(C3)C4)C3CC3)ccc2[nH]1)C(F)(F)F [Example 166]", "IC50": "< 50 nM"}
{"compound": "CC(Cn1ncc(C(=O)N[C@H](c2nc3ccc([C@@H](C)NC(=O)CCC(F)(F)F)cc3[nH]2)C2CCC(F)(F)CC2)n1)C(F)(F)F (single isomer, unassigned) [Example 70]", "IC50": "> 100 nM"}

Lookup: Which IC50 is reported with IL-17A : IL-17RA binding (Homo sapiens, UniProt Q16552, K93Q) for this entry: CCc1nonc1C(=O)NC(CC(C)(C)C(F)(F)F)c1nc2cc([C@@H](C)NC(=O)CCC(F)(F)F)ccc2[nH]1 (single isomer, unassigned) [Example 197] ?
Found: < 50 nM

###

Reported IC50 values follow for various molecules
# assay.system: IL-17A : IL-17RA binding (Homo sapiens, UniProt Q16552, K93Q)
# Construct: Name: IL-17A-Flag
# test.details: IL-17A(FLAG-tagged):IL-17RA(His-tagged) binding disruption Eu-HTRF assay, Protocol 1
# measurement.context: FLAG-IL-17A 2.5 nM at 2x final concentration; average if tested more than once

These solved cases illustrate the format of a correct answer.
{"molecule": "C[C@@H](NC(=O)CCC(F)(F)F)c1ccc2nc([C@@H](NC(=O)c3cnn(C)c3C(F)F)C3CCC(F)(F)CC3)[nH]c2c1", "IC50": "> 100 nM"}
{"molecule": "Cc1nonc1C(=O)NC(CC(C)(C)C(F)(F)F)c1nc2cc([C@@H](C)NC(=O)CCC(F)(F)F)ccc2[nH]1 (single isomer, unassigned)", "IC50": "50 to 100 nM"}
{"molecule": "C[C@@H](NC(=O)CCC(F)(F)F)c1ccc2nc([C@@H](NC(=O)c3cccc(C#N)c3)C3CCC(F)(F)CC3)[nH]c2c1", "IC50": "> 100 nM"}
{"molecule": "CC(C)n1nccc1C(=O)N[C@@H](COC(C)(C)C(F)(F)F)c1nc2cc([C@H](NC(=O)CC3CC(F)(F)C3)C3CC3)ccc2[nH]1", "IC50": "< 50 nM"}

Shift focus to the following entry.
Lookup: Query IC50 on IL-17A : IL-17RA binding (Homo sapiens, UniProt Q16552, K93Q) for COCCn1cc(C(=O)N[C@H](c2nc3cc([C@@H](C)NC(=O)CCC(F)(F)F)ccc3[nH]2)C2CCC(F)(F)CC2)nn1
Found: > 100 nM
